Data origin: patent US8148391B2

target: c-Met (cytoplasmic domain) (Homo sapiens); construct: 10 ng/mL c-Met (cytoplasmic domain, Invitrogen Corporation #PV3143); purchased Invitrogen Corporation PV3143; assay: c-Met Kinase Assay (same methods as for ALK, with modifications); assay type: biochemical; details: c-Met kinase inhibition, 1 μM ATP (Km level); read-out: cMet Activity
Sequence (P08581 956-1390 limits assumed): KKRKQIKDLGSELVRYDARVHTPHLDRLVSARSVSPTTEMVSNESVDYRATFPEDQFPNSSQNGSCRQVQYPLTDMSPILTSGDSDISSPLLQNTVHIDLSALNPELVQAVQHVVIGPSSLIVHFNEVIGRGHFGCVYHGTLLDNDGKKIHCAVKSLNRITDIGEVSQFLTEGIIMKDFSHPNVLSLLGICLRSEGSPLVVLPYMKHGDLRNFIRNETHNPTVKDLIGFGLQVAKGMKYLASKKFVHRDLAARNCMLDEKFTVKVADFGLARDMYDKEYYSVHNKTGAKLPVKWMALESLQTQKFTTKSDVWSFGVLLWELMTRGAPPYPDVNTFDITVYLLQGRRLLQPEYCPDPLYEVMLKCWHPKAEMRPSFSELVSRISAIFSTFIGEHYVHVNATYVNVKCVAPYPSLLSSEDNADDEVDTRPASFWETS
pIC50: −log10 of the molar value.
measurement.type: pIC50

Please look up its pIC50: CCNC(=O)c1ccccc1Nc1nc(Nc2cc3c(cc2OC)CC(=O)NCC3)ncc1Cl [Example 265] 6.00 to 7.00

Tell me the measured pIC50 of CNC(=O)c1ccccc1Nc1nc(Nc2ccc3c(c2)NCCNC3=O)ncc1Cl [Example 411] , please. > 7.00

Entry CNC(=O)c1ccccc1Nc1nc(Nc2ccc3c(c2)C2CN(C(C)C)CC3O2)ncc1Cl (stereo not drawn) [Example 62] has what pIC50? 6.00 to 7.00

Value lookup for pIC50; key = CNC(=O)c1ccccc1Nc1nc(Nc2ccc(OC)c3c2NC(=O)CCC3)ncc1Cl [Example 18] 5.00 to 6.00

If you can, please state the reported pIC50 value of C#CCN1CCN(C)c2cc(Nc3ncc(Cl)c(Nc4ccccc4C(=O)NC)n3)ccc2C1 [Example 487] . > 7.00

Could you share which pIC50 value was measured for CNC(=O)c1ccccc1Nc1nc(Nc2ccc3c(c2OC)CCCC(=O)N3C)ncc1Cl [Example 116] ? 5.00 to 6.00
